# study target: C. difficile toxin B from strain VPI10463 (ATCC 43255), toxinotype 0 (Clostridium difficile, UniProt P18177 2-2366)
# Sequence (P18177 2-2366 limits assumed): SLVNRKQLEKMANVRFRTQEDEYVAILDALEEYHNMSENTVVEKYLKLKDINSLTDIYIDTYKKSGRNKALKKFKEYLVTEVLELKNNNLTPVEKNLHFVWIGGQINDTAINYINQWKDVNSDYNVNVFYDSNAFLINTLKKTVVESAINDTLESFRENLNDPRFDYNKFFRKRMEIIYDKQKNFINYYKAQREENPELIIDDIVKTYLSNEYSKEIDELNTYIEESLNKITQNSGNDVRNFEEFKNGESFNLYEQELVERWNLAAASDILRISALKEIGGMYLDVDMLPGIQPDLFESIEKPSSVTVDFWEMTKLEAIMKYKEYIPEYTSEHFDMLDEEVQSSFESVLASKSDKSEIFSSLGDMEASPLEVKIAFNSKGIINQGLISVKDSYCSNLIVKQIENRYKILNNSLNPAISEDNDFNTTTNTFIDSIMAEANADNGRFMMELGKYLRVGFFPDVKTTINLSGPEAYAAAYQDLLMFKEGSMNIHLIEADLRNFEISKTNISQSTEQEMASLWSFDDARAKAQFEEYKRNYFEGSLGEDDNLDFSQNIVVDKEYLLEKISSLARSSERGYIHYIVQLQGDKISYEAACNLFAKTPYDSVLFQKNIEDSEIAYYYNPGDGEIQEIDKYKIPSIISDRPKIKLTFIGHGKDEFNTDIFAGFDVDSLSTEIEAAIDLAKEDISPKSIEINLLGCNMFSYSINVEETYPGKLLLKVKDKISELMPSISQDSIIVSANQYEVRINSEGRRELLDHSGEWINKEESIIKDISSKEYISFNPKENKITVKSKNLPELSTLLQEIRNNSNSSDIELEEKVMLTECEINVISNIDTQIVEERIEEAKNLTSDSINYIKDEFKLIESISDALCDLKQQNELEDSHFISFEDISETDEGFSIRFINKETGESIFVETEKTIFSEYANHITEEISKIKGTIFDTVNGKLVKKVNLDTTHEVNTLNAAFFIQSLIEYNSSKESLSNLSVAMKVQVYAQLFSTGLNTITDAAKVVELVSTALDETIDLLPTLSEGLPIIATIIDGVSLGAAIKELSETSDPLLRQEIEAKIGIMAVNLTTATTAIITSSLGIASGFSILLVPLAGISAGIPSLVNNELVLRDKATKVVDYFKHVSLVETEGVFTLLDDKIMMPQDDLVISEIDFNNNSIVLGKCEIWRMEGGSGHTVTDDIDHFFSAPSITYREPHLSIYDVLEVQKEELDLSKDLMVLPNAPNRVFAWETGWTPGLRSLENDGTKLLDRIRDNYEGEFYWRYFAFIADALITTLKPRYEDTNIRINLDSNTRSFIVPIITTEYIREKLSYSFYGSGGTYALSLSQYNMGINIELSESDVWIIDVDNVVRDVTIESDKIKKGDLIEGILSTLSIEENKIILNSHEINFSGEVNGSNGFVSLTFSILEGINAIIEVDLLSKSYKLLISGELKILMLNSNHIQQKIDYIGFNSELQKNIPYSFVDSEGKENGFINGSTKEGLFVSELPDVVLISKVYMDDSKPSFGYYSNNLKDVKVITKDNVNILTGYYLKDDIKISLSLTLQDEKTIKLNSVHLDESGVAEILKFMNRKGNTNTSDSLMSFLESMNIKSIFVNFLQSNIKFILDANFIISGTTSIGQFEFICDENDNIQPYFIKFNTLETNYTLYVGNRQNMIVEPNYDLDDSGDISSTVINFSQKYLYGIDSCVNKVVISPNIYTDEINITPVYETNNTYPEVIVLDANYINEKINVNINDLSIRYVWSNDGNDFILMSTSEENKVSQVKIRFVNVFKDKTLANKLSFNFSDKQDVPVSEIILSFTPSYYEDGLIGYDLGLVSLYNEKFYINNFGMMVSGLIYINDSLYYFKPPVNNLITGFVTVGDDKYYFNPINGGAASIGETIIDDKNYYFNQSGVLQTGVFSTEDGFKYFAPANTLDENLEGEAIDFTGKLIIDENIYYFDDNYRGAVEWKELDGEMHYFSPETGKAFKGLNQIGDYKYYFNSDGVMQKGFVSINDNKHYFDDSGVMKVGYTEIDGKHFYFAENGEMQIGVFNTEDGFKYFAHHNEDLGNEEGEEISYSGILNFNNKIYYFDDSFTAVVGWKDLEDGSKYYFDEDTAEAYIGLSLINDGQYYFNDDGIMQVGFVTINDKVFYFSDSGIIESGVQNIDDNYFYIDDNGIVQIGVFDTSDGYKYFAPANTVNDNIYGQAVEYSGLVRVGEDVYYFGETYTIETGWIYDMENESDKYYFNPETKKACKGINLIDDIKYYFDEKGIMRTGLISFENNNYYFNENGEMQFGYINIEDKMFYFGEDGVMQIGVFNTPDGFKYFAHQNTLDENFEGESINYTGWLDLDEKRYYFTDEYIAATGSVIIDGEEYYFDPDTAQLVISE
# measurement description: cell-based or functional assay
Catalogue of % completion TEER (T-84 cells) values
Answer in %, number only, no unit symbol.

Sample records with % completion TEER (T-84 cells):
B6 antibody (antibody, V domains shown) VH: EVQLVESGGGLVQPGGSLRLSCAASGFTFTTSTMNWVRQAPGKGLEWVSYITRTSTVIYYADSVKGRFTISRDNAKNSLYLQMSSLRAEDTAVYYCARGVRDIGGNGFDYWGQGTLVTVSS VL: EIVLTQSPGTLSLSPGERATLSCRASQSVTSSYLAWYQQKTGQAPRLLIYGASSRATGIPDRFSGSGSGTDFTLTIARLEPEDFAVYYCQQYGSSPPYTFGQGTKLEIKR: 92
B1 antibody (antibody, V domains shown) VH: EVQLVESGGGLVQPGGSLRLSCAASGFTFRSYWMHWVRQVPGKGLVWVSCINKEGSSTTYADSVKGRFTISRDNAKNTLYLEMNSLRADDTAVYYCLRGYDVDYWGQGTLVTVSS VL: QAVLTQPSSLSASPGASVSLTCTLRSGINVGTYRIYWYQQKPGSPPRYLLRYKSGLDKHQGSGVPSRFSGSKDDSANAGILFISGLQSEDEADYYCLIWHSSAVVFGGGTKLTVLG: 91

From here, focus on the item given below.
What the record says about B3 antibody (antibody, V domains shown) VH: EVQLVESGGGLVQPGGSLRLSCSASGFTFRSYWMHWVRQVPGKGLVWVSCINKEGSSTTYADSVKGRFTISRDNAKNTLYLQMNSLRADDTAVYYCLRGYDVDYWGQGTLVTVSS VL: QAVLTQPSSLSASPGASVSLTCTLRSGVNVGSYRIYWYQQKPGSPPRYLLRYKSGLDKHQGSGVPSRFSGSKDDSANAGILFISGLQSENDADYYCLIWHNSAVVFGGGTKLTVLG : % completion TEER (T-84 cells) is 95
